Sourced from patent US9688764B2

Target: T1, hPRLR.mmh (soluble monomeric human PRLR) (Homo sapiens, UniProt P16471)
T1 construct: soluble monomeric (hPRLR.mmh); mmh (myc-myc-hexahistidine)
T1 sequence (P16471 with tags, fused parts or gaps): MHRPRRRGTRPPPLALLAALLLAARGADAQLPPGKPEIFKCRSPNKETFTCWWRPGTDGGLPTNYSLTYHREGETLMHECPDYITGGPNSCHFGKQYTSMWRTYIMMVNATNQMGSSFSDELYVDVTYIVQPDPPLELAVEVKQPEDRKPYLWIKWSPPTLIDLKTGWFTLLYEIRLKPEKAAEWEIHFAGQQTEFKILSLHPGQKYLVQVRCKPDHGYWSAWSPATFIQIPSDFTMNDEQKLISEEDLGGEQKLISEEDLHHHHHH
Assay: Surface plasmon resonance (Biacore T200), mAb-capture format
Assay type: binding
Settings: 37° C., antibody-capture format, analyte hPRLR.mmh
property_name: T½ (min)

>>> experimental_value("H1H6785P: anti-PRLR antibody, human IgG1 Fc; HCVR/LCVR SEQ ID NOs 98/106 (antibody, V domains shown, human IgG1 Fc) VH: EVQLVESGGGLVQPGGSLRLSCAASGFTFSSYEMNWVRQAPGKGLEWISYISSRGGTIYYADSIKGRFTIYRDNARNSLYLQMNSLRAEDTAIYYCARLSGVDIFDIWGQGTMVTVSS VL: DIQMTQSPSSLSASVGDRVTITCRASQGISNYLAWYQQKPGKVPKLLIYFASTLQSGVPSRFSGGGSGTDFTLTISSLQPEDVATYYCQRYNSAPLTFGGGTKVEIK")
24
>>> experimental_value("H1H6975N: human IgG1 Fc form of H2M6975N; anti-PRLR; HCVR/LCVR SEQ ID NOs 370/378 (antibody, V domains shown, human IgG1 Fc) VH: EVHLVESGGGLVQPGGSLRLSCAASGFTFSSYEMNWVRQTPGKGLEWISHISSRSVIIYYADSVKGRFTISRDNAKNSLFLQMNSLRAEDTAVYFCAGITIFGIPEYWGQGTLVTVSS VL: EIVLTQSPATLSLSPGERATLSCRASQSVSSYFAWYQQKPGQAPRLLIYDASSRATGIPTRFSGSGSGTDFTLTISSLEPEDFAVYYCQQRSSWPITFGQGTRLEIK")
42.3
>>> experimental_value("H1H6774P: anti-PRLR antibody, human IgG1 Fc; HCVR/LCVR SEQ ID NOs 34/42 (antibody, V domains shown, human IgG1 Fc) VH: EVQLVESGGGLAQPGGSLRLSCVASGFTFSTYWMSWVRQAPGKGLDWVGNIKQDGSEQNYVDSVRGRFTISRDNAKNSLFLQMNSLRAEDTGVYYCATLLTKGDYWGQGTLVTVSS VL: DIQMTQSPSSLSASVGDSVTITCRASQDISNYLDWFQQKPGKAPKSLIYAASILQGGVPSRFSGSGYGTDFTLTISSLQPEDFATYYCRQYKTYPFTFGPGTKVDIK")
4
>>> experimental_value("H1H6795P: anti-PRLR antibody, human IgG1 Fc; HCVR/LCVR SEQ ID NOs 162/170 (antibody, V domains shown, human IgG1 Fc) VH: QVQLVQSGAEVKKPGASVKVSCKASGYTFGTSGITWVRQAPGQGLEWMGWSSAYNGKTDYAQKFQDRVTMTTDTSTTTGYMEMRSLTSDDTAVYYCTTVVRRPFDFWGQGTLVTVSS VL: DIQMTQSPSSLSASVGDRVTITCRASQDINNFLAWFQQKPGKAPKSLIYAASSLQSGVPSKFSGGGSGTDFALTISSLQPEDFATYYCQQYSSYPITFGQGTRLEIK")
2
>>> experimental_value("H1H6797P: anti-PRLR antibody, human IgG1 Fc; HCVR/LCVR SEQ ID NOs 178/186 (antibody, V domains shown, human IgG1 Fc) VH: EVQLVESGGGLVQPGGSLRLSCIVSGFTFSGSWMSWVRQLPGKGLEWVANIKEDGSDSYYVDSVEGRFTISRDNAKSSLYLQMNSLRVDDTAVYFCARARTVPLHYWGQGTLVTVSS VL: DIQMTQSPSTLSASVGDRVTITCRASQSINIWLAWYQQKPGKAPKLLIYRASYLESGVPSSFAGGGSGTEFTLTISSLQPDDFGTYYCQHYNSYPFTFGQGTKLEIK")
1
>>> experimental_value("H1H6790P: anti-PRLR antibody, human IgG1 Fc; HCVR/LCVR SEQ ID NOs 114/122 (antibody, V domains shown, human IgG1 Fc) VH: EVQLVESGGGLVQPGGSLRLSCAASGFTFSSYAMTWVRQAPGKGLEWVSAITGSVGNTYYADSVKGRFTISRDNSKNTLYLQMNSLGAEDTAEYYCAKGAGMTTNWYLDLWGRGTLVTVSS VL: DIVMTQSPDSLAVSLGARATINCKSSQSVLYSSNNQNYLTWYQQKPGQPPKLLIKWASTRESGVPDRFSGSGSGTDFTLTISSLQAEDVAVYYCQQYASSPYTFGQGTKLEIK")
4
>>> experimental_value("H1H6792P: anti-PRLR antibody, human IgG1 Fc; HCVR/LCVR SEQ ID NOs 130/138 (antibody, V domains shown, human IgG1 Fc) VH: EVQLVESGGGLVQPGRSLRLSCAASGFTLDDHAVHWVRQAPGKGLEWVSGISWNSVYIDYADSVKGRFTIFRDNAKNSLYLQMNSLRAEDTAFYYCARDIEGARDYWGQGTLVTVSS VL: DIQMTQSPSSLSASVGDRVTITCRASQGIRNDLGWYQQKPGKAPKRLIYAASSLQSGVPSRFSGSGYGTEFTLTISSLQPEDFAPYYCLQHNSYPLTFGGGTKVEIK")
5
>>> experimental_value("H1H6976N: human IgG1 Fc form of H2M6976N; anti-PRLR; HCVR/LCVR SEQ ID NOs 386/394 (antibody, V domains shown, human IgG1 Fc) VH: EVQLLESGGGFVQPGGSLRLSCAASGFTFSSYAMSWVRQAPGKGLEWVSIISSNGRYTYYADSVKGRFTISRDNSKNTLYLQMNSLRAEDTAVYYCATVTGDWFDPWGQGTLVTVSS VL: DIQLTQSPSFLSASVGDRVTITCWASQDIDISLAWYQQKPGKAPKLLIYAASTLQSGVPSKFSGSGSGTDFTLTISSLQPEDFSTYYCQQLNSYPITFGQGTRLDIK")
3.7
